Tested on: human red blood cells (hRBC)
Assay type: cell-based
Protocol conditions: red cells of human, 1 h
Endpoint label: Hemolysis at 100 μM [%]
Please provide the amount together with its unit, number first.

Query string: Form field: reported Hemolysis at 100 μM [%] of `CC(C)[C@@H]1NC(=O)[C@@H]2CSSC[C@H](NC(=O)[C@H](CC(=O)O)NC(=O)[C@@H]3CCCN3C(=O)[C@H]3CCCN3C1=O)C(=O)N[C@@H](Cc1ccccc1)C(=O)N[C@@H](Cc1c[nH]c3ccccc13)C(=O)N[C@@H](CCCCN)C(=O)N[C@@H](Cc1ccc(O)cc1)C(=O)N2`
Result string: 0%

Query string: Form field: reported Hemolysis at 100 μM [%] of `CC(C)C[C@@H]1NC(=O)[C@@H]2CSSC[C@H](NC(=O)[C@H](CC(=O)O)NC(=O)[C@@H]3CCCN3C(=O)[C@H]3CCCN3C1=O)C(=O)N[C@@H](Cc1ccc(O)cc1)C(=O)N[C@@H](Cc1c[nH]c3ccccc13)C(=O)N[C@@H](CCCCN)C(=O)N[C@@H](Cc1ccc(O)cc1)C(=O)N2`
Result string: 0%

---

Exercise: for every item that follows, state its recorded Plasmastability human pl. T1/2.
Test method notes: Plasma stability, human plasma
Type: in vitro ADME
Protocol conditions: 37° C., sampled up to 240 min
Bridge positions count the residues as written; N and C are the ends. Square brackets hold non-standard residues; d marks the D form. Peptide text beside a SMILES is read from it. Orn = NCCC[C@H](N)C(=O)O
Write the answer as a number in h, unit excluded.

Query string: Form field: reported Plasmastability human pl. T1/2 of `CC(C)[C@@H]1NC(=O)[C@@H]2CSSC[C@H](NC(=O)[C@H](CC(=O)O)NC(=O)[C@@H]3CCCN3C(=O)[C@H]3CCCN3C1=O)C(=O)N[C@@H](Cc1ccccc1)C(=O)N[C@@H](Cc1c[nH]c3ccccc13)C(=O)N[C@@H](CCCCN)C(=O)N[C@@H](Cc1ccc(O)cc1)C(=O)N2`
Result string: 4

Query string: Form field: reported Plasmastability human pl. T1/2 of `CC(C)C[C@@H]1NC(=O)[C@@H]2CSSC[C@H](NC(=O)[C@H](CC(=O)O)NC(=O)[C@@H]3CCCN3C(=O)[C@@H](CCC(=O)O)NC1=O)C(=O)N[C@@H](Cc1ccccc1)C(=O)N[C@@H](Cc1c[nH]c3ccccc13)C(=O)N[C@@H](CCCCN)C(=O)N[C@@H](Cc1ccc(O)cc1)C(=O)N2`
Result string: 4

Query string: Form field: reported Plasmastability human pl. T1/2 of CC(C)[C@@H]1NC(=O)[C@@H]2CSSC[C@H](NC(=O)[C@H](CC(=O)O)NC(=O)[C@@H]3CCCN3C(=O)[C@H]3CCCN3C1=O)C(=O)N[C@@H](Cc1ccccc1)C(=O)N[C@H](Cc1c[nH]c3ccccc13)C(=O)N[C@@H](CCCN)C(=O)N[C@@H](Cc1ccc(O)cc1)C(=O)N2 [compound 32] (cyclo(DCF[dW][Orn]YCV[dP]P); disulfide 2-7)
Result string: 4

---

Test method notes: in vitro
Type: cell-based
Protocol conditions: human
Bridge positions count the residues as written; N and C are the ends. Square brackets hold non-standard residues; d marks the D form. Peptide text beside a SMILES is read from it. Cha = N[C@@H](CC1CCCCC1)C(=O)O; Orn = NCCC[C@H](N)C(=O)O
Endpoint label: GI50 at 48 h

Query string: Form field: reported GI50 at 48 h of CC(C)[C@@H]1NC(=O)[C@@H]2CSSC[C@H](NC(=O)[C@H](CC(=O)O)NC(=O)[C@@H]3CCCN3C(=O)[C@H]3CCCN3C1=O)C(=O)N[C@@H](Cc1ccccc1)C(=O)N[C@H](Cc1c[nH]c3ccccc13)C(=O)N[C@@H](CCCN)C(=O)N[C@@H](Cc1ccc(O)cc1)C(=O)N2 [compound 32] (cyclo(DCF[dW][Orn]YCV[dP]P); disulfide 2-7)
Result string: > 50 µM

Query string: Form field: reported GI50 at 48 h of NCCCC[C@@H]1NC(=O)[C@H](Cc2c[nH]c3ccccc23)NC(=O)[C@H](Cc2ccccc2)NC(=O)[C@@H]2CSSC[C@H](NC(=O)[C@H](Cc3ccc(O)cc3)NC1=O)C(=O)N[C@@H](CC1CCCCC1)C(=O)N1CCC[C@@H]1C(=O)N1CCC[C@H]1C(=O)N[C@@H](CC(=O)O)C(=O)N2 [compound 35] (cyclo(DCFWKYC[Cha][dP]P); disulfide 2-7)
Result string: > 50 µM
